MEASUREMENT TARGET: T1, V domain of human CD33 (human, UniProt P20138 18-139, limits assumed)
T1 construct: recombinant, fully glycosylated V domain; also called Human CD33 V domain
METHOD SUMMARY: SPR, Fab captured, 37C;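 note: biacore 8K surface plasmon resonance with Fabs held on an amine-coupled anti-Fab antibody surface, soluble monomeric CD33 domain injected as analyte, double-referenced 1:1 binding fit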
OBSERVATION TYPE: pKd
Here pKd is given on a logarithmic scale as minus log10 of the concentration in mol/L.

// query Requested read-out: pKd. Entry: ADI-10164 Fab (Fab, V domains shown, Fab fragment; also called Ab18) VH: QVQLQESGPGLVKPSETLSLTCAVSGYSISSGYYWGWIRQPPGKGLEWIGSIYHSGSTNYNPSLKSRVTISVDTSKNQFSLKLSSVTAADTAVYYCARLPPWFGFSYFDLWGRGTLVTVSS VL: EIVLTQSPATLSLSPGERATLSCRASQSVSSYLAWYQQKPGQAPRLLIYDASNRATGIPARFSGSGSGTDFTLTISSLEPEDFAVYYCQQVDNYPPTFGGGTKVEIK
// result 6.54

// query Look up pKd for this binder: ADI-11830 Fab (Fab, V domains shown, Fab fragment; also called Ab9) VH: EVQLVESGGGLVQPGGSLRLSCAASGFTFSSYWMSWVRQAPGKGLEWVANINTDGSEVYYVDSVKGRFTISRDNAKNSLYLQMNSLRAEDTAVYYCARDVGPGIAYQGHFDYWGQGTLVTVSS VL: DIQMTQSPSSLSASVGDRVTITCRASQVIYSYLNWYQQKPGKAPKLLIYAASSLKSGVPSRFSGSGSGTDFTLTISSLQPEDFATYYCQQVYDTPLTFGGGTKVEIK
// result 8.35

// query Entry ADI-11828 Fab (Fab, V domains shown, Fab fragment; also called Ab27) VH: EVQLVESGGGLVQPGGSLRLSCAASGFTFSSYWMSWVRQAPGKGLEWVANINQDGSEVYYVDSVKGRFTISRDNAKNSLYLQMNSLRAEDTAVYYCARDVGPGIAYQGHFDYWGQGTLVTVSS VL: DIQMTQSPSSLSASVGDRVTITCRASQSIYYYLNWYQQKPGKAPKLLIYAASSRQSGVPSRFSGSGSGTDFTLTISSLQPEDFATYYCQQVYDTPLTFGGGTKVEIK has what pKd?
// result 8.20
